This listing pairs molecules with measured TGI.
- Tested on: UO-31 renal
- ASSAY_COMMENT: NCI tumour cell line growth inhibition, 48 h

MOLECULE	TGI
C[C@@H](NC(=O)c1ncnc(N)c1Cl)c1ncc(C(=O)Nc2cc(C(F)(F)F)c(Cl)cn2)s1	44.4 µM
O=C1C=CC(=Nc2cccc3c(N=C4C=CC(=O)O4)cccc23)O1	> 100 µM
C/C(=N\NC(=S)NC(CCC(=O)O)C(=O)O)c1cnccn1 (configuration not stated)	> 100 µM

Asked: # input molecule: CCN(CC)c1ccc2cc(C(=O)NCc3ccccc3)c(=N)oc2c1 ; wanted: its TGI
Given back: 97.3 µM

Asked: What does the record list as TGI for C#CCNC(=O)NCCCCC(NC(C)=O)C(=O)NCc1ccccc1 (configuration not stated) ?
Given back: > 100 µM

Asked: Item N#Cc1ncn(CCO)c1N has what recorded TGI?
Given back: > 100 µM

Asked: Fill in the blank: the reported TGI of COC(=O)n1c(C)c(C=O)c2ccc(OC)cc21 is ____.
Given back: > 100 µM

Asked: Which TGI is reported for this molecule? O=CNc1ccc(S(=O)(=O)c2ccc(NC=O)cc2)cc1
Given back: > 100 µM

Asked: Please report the recorded TGI for CCN(CC)CC(=O)NC1c2ccccc2Oc2c(C)cccc21 (configuration not stated) .
Given back: > 100 µM

Asked: For the molecule O=C1/C(=C/c2[nH]ncc2-c2ccc(Cl)cc2)C(=O)N(c2ccccc2)C1c1ccccc1 (configuration not stated) , what TGI is on record?
Given back: 58.7 µM

Asked: I am curious: what TGI value has been reported for Cc1ccc(OCC2=NC3S/C(=C/c4ccc([N+](=O)[O-])o4)C(=O)N3N2)cc1 (configuration not stated) ?
Given back: 34.8 µM

Asked: Recorded TGI for O=C1C2Cc3c(n(C(=O)c4ccccc4)c4ccccc34)CC2C(=O)N1c1ccc(Nc2ccc(N3C(=O)C4Cc5c(n(C(=O)c6ccccc6)c6ccccc56)CC4C3=O)cc2)cc1 (configuration not stated) , please?
Given back: > 100 µM

Asked: Query: TGI; subject: N#Cc1ccccc1C#C/C=C\C#CC#C/C=C\C#Cc1ccccc1C#N
Given back: > 100 µM

Asked: // query TGI value for entry Cc1nc(-n2nc(-c3ccccc3)cc2-c2ccccc2)sc1C(=O)/C=C/c1ccc(Cl)c(Cl)c1
Given back: 23.9 µM

Asked: Sample CCOC(=O)CCC(NC(=O)c1ccc(N=Cc2nc3ccccc3nc2-c2ccccc2)cc1)C(=O)OCC (configuration not stated) — what was its TGI?
Given back: > 100 µM

Asked: Fill blank: measured TGI of the molecule CCN1CCN(c2nc3ccccc3nc2C(=O)c2ccc(OC)c(OC)c2)CC1 is ____.
Given back: 47.1 µM

Asked: Returns the measured TGI for the input molecule. Input: N#Cc1ccccc1C#C/C=C\C#Cc1ccccc1N
Given back: > 25.7 µM
